# tested.system: FGFR3 (Homo sapiens, UniProt P22607)
# Sequence (P22607 23-806): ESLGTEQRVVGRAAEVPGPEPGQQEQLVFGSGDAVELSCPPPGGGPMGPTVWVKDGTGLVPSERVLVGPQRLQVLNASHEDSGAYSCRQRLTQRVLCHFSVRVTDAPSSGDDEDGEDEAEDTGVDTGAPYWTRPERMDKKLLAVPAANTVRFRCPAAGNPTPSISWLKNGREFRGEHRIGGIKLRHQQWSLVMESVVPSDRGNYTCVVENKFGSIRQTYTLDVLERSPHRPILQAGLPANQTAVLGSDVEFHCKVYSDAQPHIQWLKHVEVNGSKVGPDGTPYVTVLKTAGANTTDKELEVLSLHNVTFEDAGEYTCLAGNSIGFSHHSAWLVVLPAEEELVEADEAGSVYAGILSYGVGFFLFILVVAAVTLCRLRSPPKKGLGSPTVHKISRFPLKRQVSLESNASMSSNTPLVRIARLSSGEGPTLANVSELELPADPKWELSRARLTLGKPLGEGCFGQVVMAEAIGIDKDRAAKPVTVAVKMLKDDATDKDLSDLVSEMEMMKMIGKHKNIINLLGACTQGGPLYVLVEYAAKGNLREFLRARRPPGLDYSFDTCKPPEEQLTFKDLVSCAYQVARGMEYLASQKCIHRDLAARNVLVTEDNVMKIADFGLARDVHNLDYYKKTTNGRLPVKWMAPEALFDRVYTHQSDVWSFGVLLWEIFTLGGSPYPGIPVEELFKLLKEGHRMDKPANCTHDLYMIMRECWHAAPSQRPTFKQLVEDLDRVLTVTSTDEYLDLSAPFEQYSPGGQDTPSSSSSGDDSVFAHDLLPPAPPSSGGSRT
# test.description: Affinity to FGFR3 measured by FACS
# Assay type: binding
pKd: −log10 of the molar value.
outcome.measure: pKd

Lookup: Give the reported pKd for this molecule. PRO-029: HuCAL clone anti-FGFR3 antibody; VH-CDR3 SEQ ID NO:7, VL-CDR3 SEQ ID NO:16 (antibody, V domains shown) VH: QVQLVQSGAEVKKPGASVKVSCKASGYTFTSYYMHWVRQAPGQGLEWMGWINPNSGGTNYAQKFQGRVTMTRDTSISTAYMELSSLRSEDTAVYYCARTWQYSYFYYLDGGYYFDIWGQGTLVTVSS VL: DIVLTQSPATLSLSPGERATLSCRASQSVSSSYLAWYQQKPGQAPRLLIYGASSRATGVPARFSGSGSGTDFTLTISSLEPEDFATYYCQQTNNAPVTFGQGTKVEIKRT
Found: > 9.00
